# target.under.test: human M1 receptor (hCHRM1) (Homo sapiens, UniProt P11229)
# Construct: expressed in transfected cells; host or cells: CHO-K1
# Sequence (P11229 whole entry): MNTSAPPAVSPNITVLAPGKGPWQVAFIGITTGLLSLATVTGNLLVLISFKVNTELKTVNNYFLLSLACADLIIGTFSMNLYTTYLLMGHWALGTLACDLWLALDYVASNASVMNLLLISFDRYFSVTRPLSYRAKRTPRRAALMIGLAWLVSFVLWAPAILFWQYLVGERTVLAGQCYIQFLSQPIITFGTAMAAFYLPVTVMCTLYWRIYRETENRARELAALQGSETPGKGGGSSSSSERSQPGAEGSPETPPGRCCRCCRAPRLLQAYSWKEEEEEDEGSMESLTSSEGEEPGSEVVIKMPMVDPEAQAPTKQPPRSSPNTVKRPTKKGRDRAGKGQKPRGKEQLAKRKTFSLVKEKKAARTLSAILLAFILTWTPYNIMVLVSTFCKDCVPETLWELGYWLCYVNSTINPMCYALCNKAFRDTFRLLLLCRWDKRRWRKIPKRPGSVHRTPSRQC
# measurement.protocol: Measurement of M1 receptor positive allosteric modulator (M1PAM) activity, calcium fluorescence (FLIPRtetra) in CHO-K1 cells in the presence of acetylcholine at EC20
# Assay type: cell-based
# conditions: test compound 10 μM, in the presence of acetylcholine at EC20 (final 0.6 nM), CHO-K1 cells expressing hCHRM1
measured.metric: activity (%) at 10 μM

# compound, activity (%) at 10 μM
measured = [
    ("Cn1cc(-c2ccc(CN3Cc4cccc(Oc5c(Cl)cccc5C#N)c4C3=O)cc2)cn1 [Example 9]", 93),
    ("Cc1nn(C)cc1-c1ccc(CN2Cc3ccnc(Oc4ccc(C(F)F)cc4F)c3C2=O)c(F)c1 [Example 381]", 103),
    ("Cn1cc(-c2ccc(CN3Cc4ncnc(OCc5ccc(F)cc5F)c4C3=O)cc2)nn1 [Example 340]", 106),
]

A = N#Cc1cc(F)c(Oc2cccc3c2C(=O)N(Cc2ccc(-n4cccn4)cc2)C3)c(F)c1 [Example 364]
B = Cn1cc(-c2ccc(CN3Cc4nccc(OCC5CCCO5)c4C3=O)cc2)cn1 (centres unmarked) [Example 59]
// query Given A and given B , which shows the smaller recorded activity (%) at 10 μM? Use the label to indicate which entry you chose.
// result A
(A: 86%, B: 136%)

* * *

# target.under.test: human M1 receptor (hCHRM1) (Homo sapiens, UniProt P11229)
# measurement.protocol: Measurement of M1 receptor positive allosteric modulator (M1PAM) activity, calcium fluorescence (FLIPRtetra) in CHO-K1 cells in the presence of acetylcholine at EC20
# conditions: inflection point of M1PAM activity, in the presence of acetylcholine at EC20 (final 0.6 nM), CHO-K1 cells expressing hCHRM1; read-out: IP value
measured.metric: EC50 (µM)

# structure.smiles.string, target.under.test, unit.string, EC50
records = [
    ("Cc1nn(C)cc1-c1ccc(CN2Cc3ccnc(OCC4CCOCC4)c3C2=O)c(F)c1", "human M1 receptor (hCHRM1) (Homo sapiens, UniProt P11229)", "µM", 0.054),
]

1 = Cn1cc(-c2ccc(CN3Cc4ccnc(Oc5cc(C(C)(C)O)ccc5F)c4C3=O)cc2)cn1
2 = Cn1cc(-c2ccc(CN3Cc4ccnc(Oc5ccc(CC#N)cc5F)c4C3=O)cc2)cn1
3 = Cn1cc(-c2ccc(CN3Cc4ccnc(OCCC5CC5)c4C3=O)cc2)nn1
// query // sort entries: EC50, high to low Response format: the labels, sorted as the prompt asks.
// result 3, 1, 2

* * *

# target.under.test: human M1 receptor (hCHRM1) (Homo sapiens)
# Construct: expressed in transfected cells; host or cells: CHO-K1
# measurement.protocol: Measurement of M1 receptor positive allosteric modulator (M1PAM) activity, calcium fluorescence (FLIPRtetra) in CHO-K1 cells in the presence of acetylcholine at EC20
# Assay type: cell-based
# conditions: test compound 10 μM, in the presence of acetylcholine at EC20 (final 0.6 nM), CHO-K1 cells expressing hCHRM1
measured.metric: activity (%) at 10 μM

# molecule, activity (%) at 10 μM
data = [
    ("Cn1ccc(-c2ccc(CN3Cc4ccnc(Oc5c(F)cc(F)cc5F)c4C3=O)cc2)n1 [Example 365]", 104),
    ("O=C1c2c(ncnc2Oc2c(F)cc(F)cc2F)CN1Cc1ccc(-c2ccnnc2)cc1 [Example 369]", 103),
    ("Cn1cc(-c2ccc(CN3Cc4cccc(OCCn5cccn5)c4C3=O)cc2)cn1 [Example 19]", 91),
    ("Cc1nn(C)cc1-c1ccc(CN2Cc3ccnc(O[C@H]4CCC[C@@H]4O)c3C2=O)cc1 (relative stereo) [Example 227]", 99),
    ("NC(=O)c1ccc(CN2Cc3cccc(Oc4ccc(C(F)(F)F)cc4F)c3C2=O)cc1F [Example 461]", 95),
    ("Cc1cc(-c2ccc(CN3Cc4ccnc(OCC5CCCO5)c4C3=O)cc2)ccn1 (stereo not shown) [Example 80]", 100),
    ("Cn1cc(-c2ccc(CN3Cc4cccc(OCCN5CCC(F)(F)CC5)c4C3=O)cc2)cn1 [Example 18]", 107),
    ("CNC(=O)c1ccc(CN2Cc3ccnc(Oc4ccc(C)cc4F)c3C2=O)cc1 [Example 433]", 101),
    ("Cc1nn(C)cc1-c1ccc(CN2Cc3ccnc(Oc4c(F)cccc4Cl)c3C2=O)c(F)c1 [Example 280]", 110),
    ("CCc1ccc(Oc2nccc3c2C(=O)N(Cc2ccc(C(=O)NC)cc2)C3)c(F)c1 [Example 444]", 100),
    ("Cc1cc(-c2ccc(CN3Cc4ccnc(Oc5ccc(C#N)cc5F)c4C3=O)cc2)ccn1 [Example 368]", 99),
    ("Cn1cc(-c2ccc(CN3Cc4ccnc(Oc5ccc(C(C)(C)C#N)cc5F)c4C3=O)cc2)cn1 [Example 409]", 96),
    ("O=C1c2c(cccc2O[C@H]2CCC[C@@H]2O)CN1Cc1ccc(-n2cccn2)cc1 (relative stereo) [Example 54]", 106),
    ("CCc1ccc(Oc2nccc3c2C(=O)N(Cc2ccc(C(N)=O)c(F)c2)C3)c(F)c1 [Example 445]", 100),
    ("Cc1nn(C)cc1-c1ccc(CN2Cc3ccnc(OCC4CCOCC4)c3C2=O)c(F)c1 [Example 262]", 107),
    ("Cn1ccc(-c2ccc(CN3Cc4ccnc(OCC5CCCO5)c4C3=O)cc2)n1 (single isomer, unassigned) [Example 246]", 100),
]

Provenance of the data: patent US9777005B2
